A collection of variants and their measured protein stability index
B1: KRT18 (parent)
chain: RVRSLETENRRLESKIREHLEKKG

variants of: B1; test: protein stability index of a GFP-peptide fusion (GPS, HEK-293T) (PSI 1-6); higher = more stable; conditions: c terminus: a fixed tail appended;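 further: lentivirally expressed fusions sorted by FACS into six bins by GFP to DsRed ratio, PSI derived from sequencing read proportions per bin multiplied by bin number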
Simply state the number, no unit and no words.

E21N
4.11
E8D
3.96
E13R
3.99

Would you kindly look at the next entry?
Qu. Entry E8K needs its protein stability index filled in; supply it.
Ans. 3.89
